Source: the domain aggregation screens of Martell et al. (2025)

assay: soluble fraction after stress (log2 fold change); higher = more stays soluble; pooled small domains, quantitative proteomics; conditions: stress: 75 degC;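 further: 20 min heating vs room temperature control held 20 min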

{"columns": ["sequenceContent", "soluble fraction (log2)"],
 "data": [
  ["HMNTVAKELATQATQAKKRAFLDAYAETGIIKRAAEIAGIERKSHYLWLEKDPEYVEAFKSAGEQ", 0.427],
  ["HMRPQELSSLNTNQMRLYNSLPEAFITAEAKDIADKLRYSERSLFRFLNESNLFTKTEHGSYAKKA", 0.0879],
  ["HMERPLFVIEDYRRFAGNEVEISLKKGGKKIRGVIAGTPSDAEVTVRTQGGETTVPLGDVKRAHLVYV", -0.00192],
  ["HMSVPEAAERAIDVAQMRRALGELSPEQQRVLELAYFGGLTRQEIARATGTPLGTVHTRARLGLQNLRARL", -0.306],
  ["HMKDHKSKWMAKTELDSIAKNLSKKHAISLDYEEDGTRFYAGGQSPLGIGRLFTVFVAPRNGHWSDQLR", 0.194],
  ["HMTLVSALDQKTKDSAYYRGTYLAGKISAGKMTKQEAVADIMKNYDGNTAAMKVAAEKAGVSDLLSQTVL", 0.0489],
  ["HMGQERAVPDVKGQSFDMAQGNISRAGLKAVVTDSVYDSYARPGTVVEQSPIPLAKIKRGGTVYLTLVA", -0.118],
  ["HMSENLESEFFGIVVITQTLLQKELRDKPMTVELIRKTVEDVMSKHYSDSSVDKAKVEEELIRRFSTW", -1.32],
  ["HMGASALTEREREVLRLLEGGGSDKRIARQLAISEHGVRYHLKSIYKKLGVHDRVSAIAAGRRLAS", -1.37],
  ["HMVTKQKKLVLTIIERSHGHLSAEEIFFRAREEMPNIALGTVYRNLNSLTEEGIVRRITLPGTSDRFDT", -2.91],
  ["HMEYRVRDKMTDILELLTEHRGRIALRDAFPTGTREELLAAFLALLELTKMQTVIVYQDRLYDDIQIVMK", -0.354],
  ["HMIDRADLWEALRKLPEDTLKLFSLHFEKGMTHDEISKHTDIPVGTVKTKLRRGLIEARKLAREF", -1.28],
  ["HMKIDLTPQEEKIYSVLETELTLDEIIMKTSIKAGEALAILMDLELKKLVASVAGGKYRRKA", 0.386],
  ["HMVRDGDTFVVPKMDRFARNVEDTLHLVRELTERGVIFQMGHTVYDPHDPWSKLFLTFLAAIAEA", 0.0785],
  ["HMLYGRRFQVEGLNLERYLRAAADSGIPLKGARRFGRTLTGVAAEEHMAALEALARQGGWLFTPLEAVGAN", -0.948],
  ["HMYFFNTFTQRLFDNPELTQEEAIRQMYPGISGVQTAEKLQENFMADVYIQAAIRQEIVVQLIR", -0.485],
  ["HMITKAIELAEEAEKETVWLGVWEHNHPAQKFYQSLGFVKTDEHDFYMGNERHTDYTMTKQLK", -0.344],
  ["HMDPEEETLKNMQRMLQDSGPLKKTEFSLLAKSLGIAEKKARKLIDRGRGRFWTVESGEQKNTQLVTPIQ", -0.108],
  ["HMTPADEAGNDLDIGQTVKILRRVSEGQYEVSYRGTTWQARALNAQAAVEPSFAVIGGKEGNILLVHL", -0.202],
  ["HMLDSNILTLIKELKIRHHFTATQTHQLEKVIQQAHALGLDNSEIRSLANSSPSAKSLINDLNQKLEPLRL", -1.44],
  ["HMDLIEVLAQDTIKKIYNTYVAYKNKVDVFYVAFSGGKDSIVTLDLVQRTLPHNEFKVLFGDTGM", 0.243],
  ["HMAEMRYLDQIYEVNVPLPDLSLEDGDLLARWAVNFHQRYEELFSYRQSDQEIRLVTLRVTVLGELP", -0.65],
  ["HMIFDPTTLPEKQLLVYGIISSHPGLNAKQISEMLTLKKSSIETAIKGLRKKEIIEYEGTTRNGG", -0.267],
  ["HMGELTNALATLSERERDVARLVAQGLDNRQIAAQLFLSEGTVRNRISDILDKLALTNRTQLAIAWLHAE", -1.4]
]}

====

test: soluble fraction after stress (log2 fold change); higher = more stays soluble; pooled small domains, quantitative proteomics; conditions: stress: 75 degC
Quick rule: soluble fraction (log2) of at least -0.1 means Criterion met, below that means Criterion not met.

{"columns": ["sequenceContent", "groupLabel"],
 "data": [
  ["HMAQVSDDAELEKWADTAIDEHPKPVEEYRAGNAASINFLMGQVMKMSRGKANPGAVMQILKQKLD", "Criterion met"],
  ["HMEKPTRNKLVEIIIQNKNVTTEQMANLLNISRRAVAKHIKKLQEEGIIRRIGPDFGGHWEIVK", "Criterion not met"],
  ["HMDADRILHKTLKPRELEIYQLIKAYLEEHSQIANAKVQEISGLSEATTRRYLNIFVEFGLLKTS", "Criterion not met"],
  ["HMVKLSVGDIVQFAGGPHYVSSSAAKPASSPTAGPAKVTMIYQGAKHPYHIVHTTSASTVWGWVDADKVVK", "Criterion met"],
  ["HMSAPEGWMNRGDLRDNFRIQYPVTDRIIASYRESHPEWFGTYLSKTSKSLEYFHPDLVAKVREAAN", "Criterion met"],
  ["HMIEQIELEARVPDELGGQRLDQVAAQMFDDFSRSRLTGWIRDGSLTADGQQLRPRDIVYGGTLLQLKAEQ", "Criterion met"],
  ["HMSRWHEFLNKSEDGMKELDEQNQKVLTLLILQRFYQTPFQAKEDEEFYREFFERLSSVNEILG", "Criterion not met"],
  ["HMLTGISALKPTEAFPDEIFYEIFEIEDNIERTQYIESLRNTARQLKRVTEFNNLYKSFVLDYAQRQKQ", "Criterion not met"],
  ["HMKTGNIIAVSLVWKGKYYMIRMFFPSAARPSRADVQTEIEKVYPGSKLSSFSVSDYEPGQPLLQV", "Criterion not met"],
  ["HMESIPDELLEAFKQDPAFKQAFYALTAGRQRGYIIHFSQPKQSQTRIGRIEKYKEQIFNGIGLN", "Criterion not met"],
  ["HMEVVRVEPGATVRDLGEALGVPPTRIIQILMGLGEMKTVTQTLSTEEIELVAEELGRRVEV", "Criterion not met"],
  ["HMKNEVENLSYMINRIIEYRDLNNLSNKNLANKIGISEALLSYILNGRRKLSKEIQRKIALFLLND", "Criterion not met"],
  ["HMEDYYKILGVQSNSNPDDIKKAYRKLSLKHHPDRGGDASEFKKINEAYQTLGTPEKRKMYDMQQNN", "Criterion not met"],
  ["HMSDIQKGTQINLVNEPLYVSSKTSIVSTYKTGTYYTWGFEANNRIAITNKLENIGVKGQVTGWINKP", "Criterion not met"],
  ["HMGDWITGTVTRIADNGWGTFQPENAHNTVSIPPKMVADNQLKEADSIKIIAEPSPDGTKTFIKAISRE", "Criterion met"],
  ["HMSERIITFGEATREAMLEEMRADERVFVYGEDIAKQGGIFGQFAGMKDEFPERVLDTPISETALVGAG", "Criterion met"],
  ["HMKARLRRVFQIYYGDAYSIMKALKETFPLQTIVHEPRTNSIVVDTPDEETATKIGDVVSAL", "Criterion not met"],
  ["HMYGSLGEYELAAVQWIYGKGKITTRELSSLIGKGLTLSSKTLRGLAAKGILEWHGNSKNDPSQFYSLP", "Criterion not met"],
  ["HMELEENTERVLNILIENDIISENDIAEKLEVKINGARKALYKLKEVGFVEYTKERDEEKKWWYIYFWKLN", "Criterion not met"],
  ["HMGASYSQFLDQVDSGNVQKVAFGGDMRGGTSQLTYTTRGGQSSTITAPFDRDLINVLRTKNVEIVQEEP", "Criterion met"],
  ["HMTELIEDYVELIGDLIRHRGEARAADIANRMAVSQATVSKMIRRLNELGLVTSKPYRSLFLTDEGQKMAE", "Criterion not met"],
  ["HMPKMDGLTVMEQVNQDHFVNKRPYFIVITAVGQEKITEDAFNKGANYYVMKPFNNNMLLERIKSVRK", "Criterion met"],
  ["HMDLSPEQAELAAIRGELGIKIDDYALALNIPRDRLTSYLYGRANVPAEVLISARELRYASSA", "Criterion met"],
  ["HMADEIQIGLQKAIQSLPEKQKLVFSMRYYDEIPYDEMSKILDMSVGTLKTNYHYAKQKIEDFLQNH", "Criterion not met"],
  ["HMDLPRQSQYQALVVSYARRAGIDEAEEDLLAAFEVWRMRHNHDLAGGRTARDFILAYLPQYQRHKE", "Criterion not met"]
]}
